Values from PubChem BioAssay (NCI)

# Tested on: CAKI-1 renal
# protocol-notes: NCI tumour cell line growth inhibition, 48 h
observation-type: TGI

Consider the reported TGI for these compounds:
# compound, measurement-target, TGI
data = [
    ("O=C1Nc2ccccc2C12CCNC2Cc1ccccc1 (stereo unspecified)", "CAKI-1 renal", "> 100 µM"),
    ("COc1cc(C#Cc2ccc(=O)oc2C#Cc2ccccc2)cc(OC)c1OC", "CAKI-1 renal", "4.26 µM"),
    ("CCc1cc(Cc2cc(Cl)c(NC(=O)C(=O)C3NC(=O)NC3=O)c(CC)c2)cc(Cl)c1NC(=O)C(=O)C1NC(=O)NC1=O (stereo unspecified)", "CAKI-1 renal", "> 100 µM"),
]

Record `COc1cc(OC)cc(N(CCNC(C)C)c2ccc3ncc(-c4cnn(C)c4)nc3c2)c1` , field TGI: 13.3 µM

Record `Cc1nc(SCC(=O)Nc2nc(-c3ccc(Cl)cc3)cs2)n(Nc2ccccc2)c1C` , field TGI: 22.6 µM

Record `CCOc1ccc2nc(SCc3nc4n(n3)S(=O)(=O)c3ccccc3N4C)sc2c1` , field TGI: > 100 µM

---

# Test system: OVCAR-3 ovarian
# protocol-notes: NCI tumour cell line growth inhibition, 48 h
TGI for assorted molecules
State the answer as a number, implicitly in µM.

Consider the reported TGI for these molecules:
# molecule, units-of-measure, TGI
rows = [
    ("Cc1[nH]c2c(c1C)S(=O)(=O)c1cc3ccccc3nc1N2", "µM", 45.2),
    ("COc1ccc(-c2cn[nH]c2-c2cc(OC)c3c(c2)OCO3)cc1", "µM", 0.596),
]

Let us move to another entry and its TGI.
Record CCOC(=O)C1=CNC(C(=O)OCC)C1c1cccn1-c1ccc(Cl)cc1[N+](=O)[O-] (centres undefined) , field TGI: 30.3

---

# Test system: IGROV1 ovarian
# protocol-notes: NCI tumour cell line growth inhibition, 48 h; in the data active = GI50 below about 0.43 µM; inactive = the rest
Give your call using only these classes: 1 = active, 0 = inactive

Solved cases (5 shown):
# molecule, group-label
measured = [
    ("CO[C@H]1/C=C/O[C@@]2(C)Oc3c(C)c(O)c4c(c3C2=O)C(=O)C(/C=N/N(c2ccccc2)c2ccccc2)=C(NC(=O)/C(C)=C\\C=C\\[C@H](C)[C@H](O)[C@@H](C)[C@@H](O)[C@@H](C)[C@H](OC(C)=O)[C@@H]1C)C4=O", 0),
    ("Cc1cc(S(=O)(=O)Nc2nc3cscc3c(=O)n2Cc2ccccc2)c(S)cc1Cl", 0),
    ("CCC[CH2][Sn]([CH2]CCC)([CH2]CCC)[O]c1ccc(Cl)cc1Cl", 1),
    ("CNC(=O)c1ccc(N2CCN(Cc3ccc4nc(C)c(=O)[nH]c4c3F)CC2)c(F)n1", 0),
    ("C#CCOc1cccc(-c2ncnc3cc(NC(=O)CCl)ccc23)c1", 1),
]

Qu. Name the outcome recorded for `O=c1c(Oc2ccc(F)cc2F)cc2cnc(NC3CCOCC3)nc2n1CCCO` in the assay.
Ans. 0

Qu. Name the outcome recorded for `C=C1C(=O)O[C@H]2C[C@@H]1CC/C(C)=C/CC/C(C)=C/CC[C@H]2C` in the assay.
Ans. 0

Qu. Name the outcome recorded for `COc1cccc(-c2cc(=O)c3cc(OC)ccc3[nH]2)c1` in the assay.
Ans. 1

---

# Test system: UO-31 renal
# protocol-notes: NCI tumour cell line growth inhibition, 48 h
observation-type: TGI (µM)
State the answer as a number, implicitly in µM.

Record `Oc1[nH]c2ccccc2c1N=Nc1ccccn1` , field TGI: 33.7

Record `COc1ccc(-c2cn[nH]c2-c2cc(OC)c3c(c2)OCO3)cc1` , field TGI: 23.1

Record `Cc1[nH]c2c(c1C)S(=O)(=O)c1cc3ccccc3nc1N2` , field TGI: 56.9

---

# System: M14 melanoma
# protocol-notes: NCI tumour cell line growth inhibition, 48 h
observation-type: TGI (µM)
State the answer as a number, implicitly in µM.

# molecule, measurement-target, units-of-measure, TGI
measured = [
    ("[Cl-].[O-]/N=C(\\c1ccccc1)c1ccccn1.[O-]/N=C(\\c1ccccc1)c1ccccn1.[O-]/N=C(\\c1ccccc1)c1ccccn1.[Sm+3]", "M14 melanoma", "µM", 40.6),
    ("Cc1ccc(-c2csc(/N=C3\\C(=O)Nc4ccccc43)n2)cc1", "M14 melanoma", "µM", 2.79),
    ("O=C(c1ccccc1)N1CCN(C(=S)N(C(=O)c2ccccc2)c2ccccc2)C1=S", "M14 melanoma", "µM", 9.51),
    ("O=C(CO[N+](=O)[O-])Nc1ccc(C(=O)/C=C/c2ccc(Cl)cc2)cc1", "M14 melanoma", "µM", 4.96),
    ("CCN(Cc1cccc(F)c1)c1ccc(CO)c(Cl)c1", "M14 melanoma", "µM", 66.8),
]

Kindly note: M14 melanoma, `CCOC(=O)c1sc(-c2ccc(OS(=O)(=O)c3ccc(Br)s3)c(C=O)c2)nc1C` , TGI value reported: 11.3

Kindly note: M14 melanoma, CCCCC(C#N)(OP1(=O)OC(c2ccccc2)C(C)N1C)c1ccccc1 (configuration not stated) , TGI value reported: 38.3

---

# Tested on: T-47D breast
# protocol-notes: NCI tumour cell line growth inhibition, 48 h
observation-type: TGI (µM)
State the answer as a number, implicitly in µM.

Record `COc1cc(OC)cc(N(CCNC(C)C)c2ccc3ncc(-c4cnn(C)c4)nc3c2)c1` , field TGI: 30.3

Record `[N-]=[N+]=C1N=CN=C1c1ncn[nH]1` , field TGI: 83

---

# Test system: KM12 colon
# protocol-notes: NCI tumour cell line growth inhibition, 48 h; in the data active means GI50 below about 0.43 µM; inactive means the rest
Give your call using only these classes: YES (active), NO (inactive)

Qu. Name the outcome recorded for CCC[CH2][Sn]1([CH2]CCC)[O]CC(Cc2ccccc2)[O]1 (configuration not stated) in the assay.
Ans. NO

Qu. Name the outcome recorded for Cc1ccc(C)c2c1C(O)(C#Cc1ccccc1)c1ccccc1C2(O)C#Cc1ccccc1 (configuration not stated) in the assay.
Ans. NO

Qu. Name the outcome recorded for `COc1ccc2c(c1)C(=O)c1c-2n(CCCN=[N+]=[N-])c(=O)c2cc(OC)c(OC)cc12` in the assay.
Ans. NO

Qu. Name the outcome recorded for `Clc1nc(Cl)c2ncn(Cc3cccc(Cn4cnc5c(Cl)nc(Cl)nc54)c3)c2n1` in the assay.
Ans. NO

Qu. Name the outcome recorded for `C[N-]c1nnnn1C.[Au+].c1ccc([PH+](c2ccccc2)c2ccccc2)cc1` in the assay.
Ans. NO

Qu. Name the outcome recorded for `CN[C@H]1C=C[C@@H]2/C=C(C)/C=C/[C@@H](C)[C@H]([C@H](C)[C@H](O)[C@@H](C)NC(C)=O)OC(=O)/C=C/C=C(C)\C=C\[C@]2(C)C1` in the assay.
Ans. YES

Qu. Name the outcome recorded for `COc1ccc(C(=O)/C=C/c2ccc(C)cc2)cc1OC` in the assay.
Ans. NO

Qu. Name the outcome recorded for `COc1cccc(-c2cc(=O)c3cc(OC)ccc3[nH]2)c1` in the assay.
Ans. YES

Qu. Name the outcome recorded for `CC(C)(C)C(=O)c1c(C(F)(F)F)n([O-])c2ccccc2[n+]1=O` in the assay.
Ans. NO

Qu. Name the outcome recorded for `CO[C@H]1/C=C/O[C@@]2(C)Oc3c(C)c(O)c4c(c3C2=O)C(=O)C(/C=N/N(c2ccccc2)c2ccccc2)=C(NC(=O)/C(C)=C\C=C\[C@H](C)[C@H](O)[C@@H](C)[C@@H](O)[C@@H](C)[C@H](OC(C)=O)[C@@H]1C)C4=O` in the assay.
Ans. NO

Qu. Name the outcome recorded for `CCc1cccc(C)c1NC(=O)c1sc2nc3c(cc2c1N)CCCCC3` in the assay.
Ans. NO

Qu. Name the outcome recorded for `O=C(CO[N+](=O)[O-])Nc1ccc(C(=O)/C=C/c2ccc(Cl)cc2)cc1` in the assay.
Ans. NO

Qu. Name the outcome recorded for `Fc1ccc2[nH]cc(-c3nonc3-c3c[nH]c4ccc(Br)cc34)c2c1` in the assay.
Ans. NO

Qu. Name the outcome recorded for `O=S(=O)(Nc1ccccc1Cl)c1ccc(-c2cnc(C3CC3)o2)cc1` in the assay.
Ans. YES

Qu. Name the outcome recorded for `[Cl][Hg][Cl]` in the assay.
Ans. NO

Qu. Name the outcome recorded for `CCCNNC(=O)/C=C/c1ccc(CNCCc2c(C)[nH]c3ccccc23)cc1` in the assay.
Ans. YES

Qu. Name the outcome recorded for `CCC[CH2][Sn]([CH2]CCC)([CH2]CCC)[O]c1ccc(Cl)cc1Cl` in the assay.
Ans. YES

---

TGI for assorted compounds
# System: UACC-62 melanoma
# protocol-notes: NCI tumour cell line growth inhibition, 48 h

Consider the reported TGI for these compounds:
# compound, value-reported
measured = [
    ("CCC(CON(C)c1ccccc1)(SC)SC", "> 100 µM"),
    ("CO[C@H]1/C=C/O[C@@]2(C)Oc3c(C)c(O)c4c(c3C2=O)C(=O)C(/C=N/N(c2ccccc2)c2ccccc2)=C(NC(=O)/C(C)=C\\C=C\\[C@H](C)[C@H](O)[C@@H](C)[C@@H](O)[C@@H](C)[C@H](OC(C)=O)[C@@H]1C)C4=O", "2.92 µM"),
]

Record `Oc1[nH]c2ccccc2c1N=Nc1ccccn1` , field TGI: > 100 µM

Record O=C1Nc2ccccc2C12CCNC2Cc1ccccc1 (stereo unspecified) , field TGI: > 100 µM

Record `Clc1nc(Cl)c2ncn(Cc3cccc(Cn4cnc5c(Cl)nc(Cl)nc54)c3)c2n1` , field TGI: 5.91 µM

Record COc1cc2c(cc1OC)C(C(CO)CO)N(CC(O)CCl)CC2 (stereo unspecified) , field TGI: > 100 µM
